study_target: human DGKα (Homo sapiens (Human), UniProt P23743)
Sequence (P23743 other isoform, or with tags, fused parts or gaps): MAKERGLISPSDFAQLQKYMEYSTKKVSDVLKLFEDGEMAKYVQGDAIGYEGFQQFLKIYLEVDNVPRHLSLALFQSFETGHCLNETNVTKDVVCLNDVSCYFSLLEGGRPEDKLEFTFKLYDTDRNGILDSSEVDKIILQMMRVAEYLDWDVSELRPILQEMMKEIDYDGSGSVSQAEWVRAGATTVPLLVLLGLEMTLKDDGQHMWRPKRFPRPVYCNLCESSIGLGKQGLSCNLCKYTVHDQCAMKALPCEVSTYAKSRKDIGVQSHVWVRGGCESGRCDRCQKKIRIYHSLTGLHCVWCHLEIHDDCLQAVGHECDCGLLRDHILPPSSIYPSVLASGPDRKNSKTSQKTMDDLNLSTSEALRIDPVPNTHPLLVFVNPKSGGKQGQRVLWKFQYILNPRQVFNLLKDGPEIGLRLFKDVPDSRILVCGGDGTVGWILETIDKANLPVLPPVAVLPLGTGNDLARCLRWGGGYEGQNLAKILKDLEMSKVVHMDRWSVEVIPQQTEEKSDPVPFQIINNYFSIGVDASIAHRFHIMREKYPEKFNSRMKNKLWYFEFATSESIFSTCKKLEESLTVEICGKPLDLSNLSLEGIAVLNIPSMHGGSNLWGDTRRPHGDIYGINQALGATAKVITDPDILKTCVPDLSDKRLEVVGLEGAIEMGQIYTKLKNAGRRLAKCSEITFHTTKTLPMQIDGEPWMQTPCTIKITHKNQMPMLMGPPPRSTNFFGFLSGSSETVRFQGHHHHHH
test_name: DGKα LIPGLO assay (extruded liposome substrate)
Assay type: biochemical
Known IC50 of a selection of molecules
property: IC50

# molecule, property, test_value
rows = [
    ("Cn1c(=O)c(C#N)c(N2CCN(Cc3ccc(O)c(F)c3)CC2)c2nc(Cl)ccc21", "IC50", "0.085 µM"),
    ("COc1cc(F)ccc1C(c1ccc(F)cc1OC)N1CCN(c2c(C#N)c(=O)n(C)c3ccc(C)nc23)CC1", "IC50", "> 240 µM"),
    ("COc1ccc2c(n1)c(N1CCN(C(c3ccc(F)cc3)c3ccc(F)cc3OC)CC1)c(C#N)c(=O)n2C (racemic) [Example 412]", "IC50", "1.8 µM"),
    ("Cc1ccc2c(n1)c(N1CCN(Cc3cc(Br)ccc3O)CC1)c(C#N)c(=O)n2C", "IC50", "1.7 µM"),
    ("Cc1cccc(OCc2cncc(C#N)c2)c1C(c1ccc(F)cc1)N1CCN(c2c([N+](=O)[O-])c(=O)n(C)c3ccc(Br)nc23)CC1 (single isomer, unassigned)", "IC50", "> 240 µM"),
    ("Cn1c(=O)c([N+](=O)[O-])c(N2CCN(C(c3ccc(F)cc3)c3ccc(F)cc3)CC2)c2ncccc21", "IC50", "3.8 µM"),
    ("C=CCn1c(=O)c([N+](=O)[O-])c(N2CCN(C(c3ccccc3)c3ccccc3)CC2)c2ncccc21", "IC50", "> 240 µM"),
]

The measurements presented in this section are drawn from patent US11866430B2.
